Values from ChEMBL document CHEMBL3734664

assay: Plasma clearance in rat at 0.5 mg/kg, iv; format: ADME, organism-based
Measure Name: clearance (mL/min/kg)

Inquiry: Give clearance for Cc1nc2cnc(Nc3ccnc(/C=C/C(C)(C)O)n3)cc2n1C(C)C
Reply text: 50

[1] Cc1nc2cnc(Nc3ccnc(NCC(C)(C)C(N)=O)n3)cc2n1C(C)C
[2] CC(C)n1c(CO)nc2cnc(Nc3ccnc(N4CC[C@H](O)[C@H](F)C4)n3)cc21 (racemic)
Inquiry: Lab note: record which item had the higher clearance, 1 or 2 . API: response body contains the label of the selected item.
Reply text: 1
(1: 250 mL/min/kg, 2: 151 mL/min/kg)

[A] Cc1nc2cnc(Nc3ccnc(N4CCC(S(C)(=O)=O)CC4)n3)cc2n1C(C)C
[B] Cc1nc2cnc(Nc3ccnc(OCC(C)(C)S(C)(=O)=O)n3)cc2n1C(C)C
Inquiry: Lab note: check whether A or B has the lower measured clearance. Choose, then provide that item's label.
Reply text: B
